From: patent US20120213771A1

Target: T1, recombinant human CD27/TNFRSF7/Fc chimera (R&D Systems Catalog No. 382-CD) (UniProt P26842 20-191)
T1 chain: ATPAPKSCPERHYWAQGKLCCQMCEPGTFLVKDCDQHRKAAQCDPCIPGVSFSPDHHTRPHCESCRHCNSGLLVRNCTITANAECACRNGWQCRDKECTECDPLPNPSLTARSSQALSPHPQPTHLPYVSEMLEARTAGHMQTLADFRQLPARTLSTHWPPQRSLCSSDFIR
Experiment: Biacore SPR
observedProperty: Ka (M⁻¹)

binder	readoutNumber
2C2-1A10 (antibody, V domains shown) VH: QVQLVESGGGVVQPGRSLRLSCAASGFTFSSYDIHWVRQAPGKGLEWVAVIWNDGSNKYYADSVKGRFTISRDNSTNSLFLQMNSLRAEDTAVYYCVGGTADLEHWDQGTLVTVSS VL: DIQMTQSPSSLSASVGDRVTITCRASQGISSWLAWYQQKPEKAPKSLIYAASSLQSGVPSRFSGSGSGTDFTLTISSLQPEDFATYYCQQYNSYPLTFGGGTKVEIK	1.2e+10
1G5-1B9 (antibody, V domains shown) VH: QVQLVESGGGVVQPGRSLRLSCAASGFSFSSYGMHWVRQAPGKGLEWVALLWYDGSHKDFADSVKGRFTISRDNSKNTLDLQMNSLRAEDTAVYYCAREGLAVPGHWYFDLWGRGTLVTVSS VL: AIQLTQSPSSLSASVGDRVTITCRASQGISSALAWYQQKPGKAPKLLIYDASSLESGVPSRFSGSGSGTDFTLTISSLQPEDFATYYCQQFNTYPRTFGQGTKVEIK	2.55e+09
1F5-1H5 (antibody, V domains shown) VH: QVQLVESGGGVVQPGRSLRLSCAASGFTFSSYDMHWVRQAPGKGLEWVAVIWYDGSNKYYADSVKGRFTISRDNSKNTLYLQMNSLRAEDTAVYYCARGSGNWGFFDYWGQGTLVTVSS VL: DIQMTQSPSSLSASVGDRVTITCRASQGISRWLAWYQQKPEKAPKSLIYAASSLQSGVPSRFSGSGSGTDFTLTISSLQPEDFATYYCQQYNTYPRTFGQGTKVEIK	5.37e+09
